Molecular target: human Fc (human)
Assay: ELISA; negative control
Recorded optical density values for a group of binders are listed next.

binder	optical density (OD)
376_C12 (antibody, V domains shown) VH: EVQLLESGGGLVQPGGSLRLSCAASGFTFSSYSMNWVRQAPGKGLEWVAGINYNGGYTGYADSVKGRFTISRDNSKNTLYLQMNSLRAEDTAVYYCARSANWHDTALDYWGQGTLVTVSS VL: DIQMTQSPSSLSASVGDRVTITCRASQSILTYVNWYQQKPGKAPKLLIYAATSRASGVPSRFSGSGSGTDFTLTISSLQPEDFATYYCQQSYDSPLTFGGGTKVEIK	0.438
376_H10 (antibody, V domains shown) VH: EVQLLESGGGLVQPGGSLRLSCAASGFTFDSYSMNWVRQAPGKGLEWVSGINYNSGYKSYADSVKGRFTISRDNSKNTLYLQMNSLRAEDTAVYYCARSANWHDTALDYWGQGTLVTVSS VL: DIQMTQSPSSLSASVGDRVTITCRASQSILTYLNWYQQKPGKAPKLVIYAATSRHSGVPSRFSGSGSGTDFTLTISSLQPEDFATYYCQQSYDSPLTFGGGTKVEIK	0.318
367_F02 (antibody, V domains shown) VH: EVQLLESGGGLVQPGGSLRLSCAASGFTFDSYSMNWVRQAPGKGLEWVANINYNGGYTSYADSVKGRFTISRDNSKNTLYLQMNSLRAEDTAVYYCARSATWHDTHLDYWGQGTLVTVSS VL: DIQMTQSPSSLSASVGDRVTITCRASQSIISYVNWYQQKPGKAPKLLIYAATSRHSGVPSRFSGSGSGTDFTLTISSLQPEDFATYYCQQSYESPLTFGGGTKVEIK	0.315
376_C06 (antibody, V domains shown) VH: EVQLLESGGGLVQPGGSLRLSCAASGFTFSSYGMNWVRQAPGKGLEWVAGINYNGGYTSYADSVKGRFTISRDNSKNTLYLQMNSLRAEDTAVYYCARSATWHDTALDYWGQGTLVTVSS VL: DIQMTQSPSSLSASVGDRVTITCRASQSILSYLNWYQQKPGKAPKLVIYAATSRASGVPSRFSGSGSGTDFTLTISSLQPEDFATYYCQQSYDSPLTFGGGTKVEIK	0.29
365_D05 (antibody, V domains shown) VH: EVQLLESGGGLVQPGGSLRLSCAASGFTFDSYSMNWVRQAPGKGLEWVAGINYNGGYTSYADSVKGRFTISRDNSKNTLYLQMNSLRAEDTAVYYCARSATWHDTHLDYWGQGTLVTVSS VL: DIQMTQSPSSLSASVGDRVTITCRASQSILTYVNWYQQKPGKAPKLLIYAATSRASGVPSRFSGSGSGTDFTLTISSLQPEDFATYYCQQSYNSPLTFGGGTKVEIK	0.357
365_B09 (antibody, V domains shown) VH: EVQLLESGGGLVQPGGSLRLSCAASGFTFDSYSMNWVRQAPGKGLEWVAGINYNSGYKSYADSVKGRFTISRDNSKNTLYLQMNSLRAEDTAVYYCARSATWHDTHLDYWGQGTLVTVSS VL: DIQMTQSPSSLSASVGDRVTITCRASQSILRYLNWYQQKPGKAPKLLIYAATSLHSGVPSRFSGSGSGTDFTLTISSLQPEDFATYYCQQSYDNPLTFGGGTKVEIK	0.272
367_H07 (antibody, V domains shown) VH: EVQLLESGGGLVQPGGSLRLSCAASGFTFSSYSMNWVRQAPGKGLEWVANINYNGGYTGYADSVKGRFTISRDNSKNTLYLQMNSLRAEDTAVYYCARSATWHDTALDYWGQGTLVTVSS VL: DIQMTQSPSSLSASVGDRVTITCRASQSILSYVNWYQQKPGKAPKLVIYATTSRASGVPSRFSGSGSGTDFTLTISSLQPEDFATYYCQQSYENPLTFGGGTKVEIK	0.297
366_B04 (antibody, V domains shown) VH: EVQLLESGGGLVQPGGSLRLSCAASGFTFDSYSMNWVRQAPGKGLEWVAGINYNGGYKGYADSVKGRFTISRDNSKNTLYLQMNSLRAEDTAVYYCARSATWHDTHLDYWGQGTLVTVSS VL: DIQMTQSPSSLSASVGDRVTITCRASQSILTYVNWYQQKPGKAPKLVIYAATSRHSGVPSRFSGSGSGTDFTLTISSLQPEDFATYYCQQSYDTPLTFGGGTKVEIK	0.331
369_A10 (antibody, V domains shown) VH: EVQLLESGGGLVQPGGSLRLSCAASGFTFDSYSMNWVRQAPGKGLEWVAGINYNSGYTGYADSVKGRFTISRDNSKNTLYLQMNSLRAEDTAVYYCARSATWHDTHLDYWGQGTLVTVSS VL: DIQMTQSPSSLSASVGDRVTITCRASQSILSYLNWYQQKPGKAPKLLIYAATSRASGVPSRFSGSGSGTDFTLTISSLQPEDFATYYCQQSYELPLTFGGGTKVEIK	0.348
374_B09 (antibody, V domains shown) VH: EVQLLESGGGLVQPGGSLRLSCAASGFTFSSYSMNWVRQAPGKGLEWVSGINYNGGYKSYADSVKGRFTISRDNSKNTLYLQMNSLRAEDTAVYYCARSATWHDTHLDYWGQGTLVTVSS VL: DIQMTQSPSSLSASVGDRVTITCRASQSIVRYLNWYQQKPGKAPKLVIYAATSLASGVPSRFSGSGSGTDFTLTISSLQPEDFATYYCQQSYELPLTFGGGTKVEIK	0.172
